Biological target: AurA (Homo sapiens, UniProt O14965)
Construct: purchased Carna Biosciences
Sequence (O14965 whole entry): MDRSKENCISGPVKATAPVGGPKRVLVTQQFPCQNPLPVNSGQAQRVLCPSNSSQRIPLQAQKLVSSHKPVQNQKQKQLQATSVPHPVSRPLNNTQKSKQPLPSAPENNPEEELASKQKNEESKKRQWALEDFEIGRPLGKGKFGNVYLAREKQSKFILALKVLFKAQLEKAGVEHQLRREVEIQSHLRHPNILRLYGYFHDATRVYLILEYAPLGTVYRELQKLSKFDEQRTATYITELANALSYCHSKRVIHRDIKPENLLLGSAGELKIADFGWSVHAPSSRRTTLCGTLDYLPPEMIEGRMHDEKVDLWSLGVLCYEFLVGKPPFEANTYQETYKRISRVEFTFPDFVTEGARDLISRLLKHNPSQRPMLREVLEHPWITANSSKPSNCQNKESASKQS
Experiment: LabChip (Caliper) kinase assay, AurA
Assay type: biochemical
Conditions: compound at 10 nM, read-out: remaining kinase activity (in %) / percentage of inhibition
Consider the following molecules; for each one, report its inhibition at 0.01 µM.
Answers are plain numbers, in %.

MOLECULE	inhibition at 0.01 µM / %
C[C@@H]1O[C@@H](n2c3ccccc3c3c4c(c5c6ccccc6[nH]c5c32)C(=O)NC4=O)C[C@@H](O)[C@H]1O	4

Your task in this section: give inhibition at 0.01 µM for each listed record.
1. C[C@@H]1O[C@@H](n2c3ccccc3c3c4c(c5c6ccccc6[nH]c5c32)C(=O)NC4=O)C[C@H](O)[C@H]1O
2. C[C@@H]1O[C@@H](n2c3ccccc3c3c4c(c5c6ccccc6[nH]c5c32)CNC4=O)[C@H](O)[C@H](O)[C@H]1O [formula (XII), N^13-1′-β-L-rhamnosyl-k252c]

Output:
1. 4
2. 2
